These measurements were taken from paper PMC4604124.

protocol.summary: MTT cytotoxicity assay, 3T3 cells
Format: cell-based, mouse
measurement.context: mouse, 3T3 mouse embryo fibroblasts, 3T3; 10 000 b/j; koncentrace 1000 nM; individual experiments; read-out: MTT viability (0 = 100)
recorded.endpoint: viability at 72 h, 1000 nM (%)

sample_smiles=CCNC(=S)NN=C(c1ccccc1)c1ccccn1 recorded_endpoint="viability at 72 h, 1000 nM" value_unit=% value_reported=49.5

---

System: H9c2 cardiomyoblasts
protocol.summary: MTT cytotoxicity assay, H9c2 cells
Type: cell-based, rat
measurement.context: Rattus norvegicus, H9c2, H9c2; 10 000 b/j; MTT; průměr (mean); sheet Z-Bp4eS; read-out: IC50 měřené
pIC50: −log10 of the molar value.
recorded.endpoint: pIC50

sample_smiles=CCNC(=O)NN=C(c1ccccc1)c1ccccn1 assayed_target="H9c2 cardiomyoblasts" recorded_endpoint=pIC50 value_reported=3.46
